// data source = PubChem BioAssay (NCI)

assay.notes: NCI Yeast Anticancer Drug Screen. Data for the sgs1 mgt1 strain (AID 161);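 further: 0% = growth of cultures given vehicle only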
particulars: S. cerevisiae sgs1 mgt1 strain, hits give high values; at 50.0 µM unless noted
Method: Growth inhibition of yeast strains with defined genetic alterations is measured as a screen for potential anti-cancer activity. Selected strains with alterations in DNA damage repair or cell cycle control were exposed to compounds and growth inhibition was measured relative to vehicle treated controls. The strain used in this assay is sgs1 mgt1
About 79,000 compounds went through this panel and 15% of them were active in at least one assay; those are over-represented in the sample as a whole.
measurement.type: growth inhibition (%)
Provide only the numeric value, understood in %.

Below, each entry is followed by its recorded growth inhibition result.
CCCCCCCCCCCCC(C)O (configuration not stated) | -18.8
O=C1C(=O)c2ccccc2C(O)=C1CN1CCOCC1 | 14.4
CCCCCCC1OC(C)C(C)O1 (configuration not stated) | 23.9

// moving on: another record for growth inhibition
Record Clc1cccc(C2ON=C(c3ccccc3)N2C23CC4CC(CC(C4)C2)C3)c1Cl (configuration not stated) . Reported growth inhibition: 7.95
